- Test system: LXF-289
- testDetails: relative viability (nuclei count vs DMSO), 5 days (fraction); higher = more cells survive
- reportedConditions: first compound 0.8 µM
I'd appreciate it if you could supply relative viability values for the items below.

Examples with their reported relative viability follow.
[
  {
    "compound": "COc1nc(C)cnc1NS(=O)(=O)c1cccnc1-c1ccc(-c2nnco2)cc1 [Zibotentan] + O=C(c1cc(Cc2n[nH]c(=O)c3ccccc23)ccc1F)N1CCN(C(=O)C2CC2)CC1 [Olaparib] (partner 8 µM)",
    "relative viability": 1.14
  },
  {
    "compound": "O=c1cc(-c2cccc3c2Sc2ccccc2S3)oc(N2CCOCC2)c1 + CCNC(=O)c1noc(-c2cc(C(C)C)c(O)cc2O)c1-c1ccc(CN2CCOCC2)cc1 [Luminespib] (partner 0.01 µM)",
    "relative viability": 0.636
  },
  {
    "compound": "O=c1cc(-c2cccc3c2Sc2ccccc2S3)oc(N2CCOCC2)c1 + C[C@]1(O)C[C@@H](c2nc(-c3ccc4ccc(-c5ccccc5)nc4c3)c3c(N)nccn32)C1 [Linsitinib] (partner 1 µM)",
    "relative viability": 0.99
  }
]

The reported relative viability of the compound O=c1cc(-c2cccc3c2Sc2ccccc2S3)oc(N2CCOCC2)c1 + CC(=O)c1c(C)c2cnc(Nc3ccc(N4CCNCC4)cn3)nc2n(C2CCCC2)c1=O [Palbociclib] (partner 0.5 µM) was 0.609
